target: PTGER2 (EP2) (Homo sapiens (Human), UniProt P43116); assay: hEP2 b-arrestin assay (PathHunter HEK 293 PTGER2 b-arrestin cells); assay type: cell-based; conditions: antagonistic activity on hEP2; mean where measured multiple times
Sequence (P43116 whole entry): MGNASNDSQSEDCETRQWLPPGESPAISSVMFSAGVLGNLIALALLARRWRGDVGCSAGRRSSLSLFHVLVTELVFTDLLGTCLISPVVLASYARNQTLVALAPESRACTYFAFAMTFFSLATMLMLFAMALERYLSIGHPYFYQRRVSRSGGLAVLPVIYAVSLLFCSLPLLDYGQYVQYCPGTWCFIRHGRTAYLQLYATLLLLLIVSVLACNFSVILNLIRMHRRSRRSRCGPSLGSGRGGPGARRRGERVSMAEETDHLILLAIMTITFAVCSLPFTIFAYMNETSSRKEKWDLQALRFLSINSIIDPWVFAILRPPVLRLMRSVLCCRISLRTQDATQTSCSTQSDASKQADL
Assignment: determine reported IC50 for the given compounds.
Answers are plain numbers, in nM.

Provide the reported IC50 of each entry below, same order.
1. COc1cccc2c1cc(C)n2CCNc1cc(-c2ccc(-c3noc(=O)[nH]3)cc2)ncn1 [compound 194]
2. COc1cccc2c1cc(C)n2CCNc1cc(-c2ccc(-c3nnc(C)o3)c(F)c2)ncn1 [compound 300]
3. COc1ccc(Cl)c2c1cc(C)n2CCNc1cc(-c2ccc3[nH]cnc3c2)ncn1 [compound 56]
4. CCSc1cc(-c2cc(NCCn3c(C)cc4ccccc43)ncn2)ccc1C(=O)O [compound 33]
5. CCCc1cc(-c2cc(NCCn3c(C)cc4cc(C)cc(Cl)c43)ncn2)ccc1C(=O)O [compound 266]
6. COc1cc(F)c(F)c2c1cc(C)n2CCNc1cc(-c2ccc3c(c2)CC(=O)N3)ncn1 [compound 199]
7. COc1ccc(F)c2c1cc(C)n2CCNc1cc(-c2ccc(-c3nc(C)no3)cc2)ncn1 [compound 302]

Given back:
10
40
151
3
53
102
33

* * *

Assignment: determine reported IC50 for the given compounds.
target: UniProt:P35408; assay: hEP4 cAMP assay (BT549 breast cancer cells, HTRF cAMP); format: cell-based; settings: antagonistic activity; mean values where measured multiple times
Sequence (P35408 whole entry): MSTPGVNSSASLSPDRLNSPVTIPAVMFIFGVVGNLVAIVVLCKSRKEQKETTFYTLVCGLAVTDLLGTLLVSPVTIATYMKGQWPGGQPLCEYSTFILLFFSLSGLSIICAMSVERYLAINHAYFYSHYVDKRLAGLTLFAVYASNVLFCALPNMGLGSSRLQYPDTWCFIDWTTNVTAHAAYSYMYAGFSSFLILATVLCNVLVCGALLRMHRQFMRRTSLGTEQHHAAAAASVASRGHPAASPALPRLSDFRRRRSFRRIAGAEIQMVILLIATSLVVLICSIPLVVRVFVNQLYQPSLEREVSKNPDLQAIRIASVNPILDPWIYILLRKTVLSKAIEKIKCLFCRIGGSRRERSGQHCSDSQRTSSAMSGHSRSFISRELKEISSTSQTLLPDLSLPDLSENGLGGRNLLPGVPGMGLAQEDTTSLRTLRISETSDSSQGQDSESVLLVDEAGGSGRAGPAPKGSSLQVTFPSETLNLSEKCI
Give bare numbers, in nM.

Some entries whose results are on file:
compound	subject-of-test	unit-abbreviation	IC50
CCCOc1cc(-c2cc(NCCn3c(C)cc4c(C)c(F)cc(F)c43)ncn2)cc(Cl)c1C(=O)O [compound 629]	UniProt:P35408	nM	98
CCOc1cc(-c2cc(NCCn3c(C)cc4c(Br)cccc43)ncn2)ccc1C(=O)O [Example 780]	UniProt:P35408	nM	826
COc1cc(F)cc2c1cc(C)n2CCNc1cc(-c2ccc(-c3cnc(N)o3)cc2)ncn1 [compound 572]	UniProt:P35408	nM	45
COc1ccc(F)c2c1cc(C)n2CCNc1cc(-c2ccc(-c3nc(N)sc3C)cc2)ncn1 [compound 458]	UniProt:P35408	nM	74
COc1ccc(F)c2c1cc(C)n2CCNc1cc(-c2ccc(-c3oc(CCC(=O)O)nc3C)cc2)ncn1 [compound 652]	UniProt:P35408	nM	136
Cc1cc(F)cc2c1cc(C)n2CCNc1cc(-c2ccc(-c3nc(C(=O)O)cs3)cc2)ncn1 [compound 545]	UniProt:P35408	nM	119
CCCc1cc(-c2cc(NCCn3c(C)cc4c(OC)cccc43)ncn2)cc(F)c1C(=O)O [compound 445]	UniProt:P35408	nM	235
Cc1ccc(F)c2c1cc(C)n2CCNc1cc(-c2ccc(C(=O)O)c(NS(C)(=O)=O)c2)ncn1 [compound 479]	UniProt:P35408	nM	233

Provide the reported IC50 of each entry below, same order.
1. CCCc1cc(-c2cc(NCCn3c(C)cc4c(OC)ccc(Cl)c43)ncn2)cc(Cl)c1C(=O)O [compound 513]
2. COc1c(F)cc(Cl)c2c1cc(C)n2CCNc1cc(-c2ccc3[nH][nH]c(=O)c3c2)ncn1 [Example 783]
3. COc1cc(F)cc2c1cc(C)n2CCNc1cc(-c2ccc(C(=O)O)c(CC(C)C)c2)ncn1 [compound 530]

Given back:
1. 130
2. 912
3. 50

Provide the reported IC50 of each entry below, same order.
1. Cc1c(F)cc(F)c2c1cc(C)n2CCNc1cc(-c2ccc(C(=O)O)c(OC(F)F)c2)ncn1 [compound 510]
2. COc1cc(F)cc2c1cc(C)n2CCNc1cc(-c2cc(C(F)(F)F)c(C(=O)O)s2)nc(C)n1 [compound 541]

Given back:
1. 216
2. 25

Values compiled from patent US12011444B2.
